assay: Mouse pharmacokinetic study; assay type: in vivo, mice; conditions: male, Swiss Albino, plasma, ip, 150 mg/kg
READOUT_KIND: Cmax

query: State the recorded Cmax for this entry: NC1(C(=O)N[C@@H](CCN2CCN(C(=O)CCOCCOCCOCCOCCOCCNc3cccc4c3C(=O)N(C3CCC(=O)NC3=O)C4=O)CC2)c2ccc(Cl)cc2)CCN(c2ncnc3[nH]ccc23)CC1 (stereo partly shown)
result: 8 µM

---

tested on: total AKT (T-AKT); assay: Immunoblotting of total AKT in BT474 cells; format: cell-based; details: BT474 cells, 1, 5 and 10 μM, 24 h, western blot
READOUT_KIND: AKT (T-AKT) degradation

NC1(C(=O)N[C@@H](CCN2CCN(C(=O)CCCCNc3cccc4c3C(=O)N(C3CCC(=O)NC3=O)C4=O)CC2)c2ccc(Cl)cc2)CCN(c2ncnc3[nH]ccc23)CC1 (some centres unmarked) [Compound 27] | moderate effectiveness
NC1(C(=O)N[C@@H](CCN2CCN(C(=O)CCCCCNc3cccc4c3C(=O)N(C3CCC(=O)NC3=O)C4=O)CC2)c2ccc(Cl)cc2)CCN(c2ncnc3[nH]ccc23)CC1 (some centres unmarked) [Compound 28] | moderate effectiveness
